Data provenance: patent US20230265151A1

Molecular target: T1, human GIP receptor (human, UniProt P48546 22-466)
T1 sequence (looked up): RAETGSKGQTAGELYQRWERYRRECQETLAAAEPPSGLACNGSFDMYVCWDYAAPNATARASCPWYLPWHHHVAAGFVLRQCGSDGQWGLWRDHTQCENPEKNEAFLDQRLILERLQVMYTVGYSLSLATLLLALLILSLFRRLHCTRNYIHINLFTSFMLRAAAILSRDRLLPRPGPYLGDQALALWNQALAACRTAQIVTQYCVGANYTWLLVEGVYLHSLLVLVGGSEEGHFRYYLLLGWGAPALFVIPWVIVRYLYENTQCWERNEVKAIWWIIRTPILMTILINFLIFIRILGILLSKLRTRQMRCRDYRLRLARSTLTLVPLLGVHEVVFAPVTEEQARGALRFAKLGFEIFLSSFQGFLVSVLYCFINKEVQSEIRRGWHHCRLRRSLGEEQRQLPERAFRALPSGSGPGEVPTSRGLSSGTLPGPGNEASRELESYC
Test: cell-based or functional assay
*1 amine or outer side, *2 acyl side, *3 side chain or, on linkers, in order; H or OH if unused. Where no end group is shown, it is not given here. Side-chain parts run from the residue outwards. [ ]: non-standard residue; d: D form. The star is where a group is joined. Decanoyl(10-(4-HOOC-PhO)) = O=C(O)c1ccc(OCCCCCCCCCC(=O)*)cc1; αMePhe(2-F) = C[C@](N)(Cc1ccccc1F)C(=O)O; γGlu = O=C(O)[C@H](CCC(=O)[*:2])N[*:1]; αMeY = C[C@](N)(Cc1ccc(O)cc1)C(=O)O; αMeL = CC(C)C[C@](C)(N)C(=O)O; Orn = NCCC[C@H](N)C(=O)O; AEEA = NCCOCCOCC(=O)O; Aib = CC(C)(N)C(=O)O
Response field class: enum, chosen by comparing cAMP EC50 (1.0% HSA) against group 1 (below 0.4 nM), group 2 (0.4 nM to below 1 nM), group 3 (1 nM or more)

1) YXEGTXTSDYXIXLDXQAQXEFIKXLIKGGPSSGAPPPS (Y-Aib-EGT-αMeF(2F)-TSDY-Aib-I-αMeL-LD-Orn-QAQ-Aib-EFIK((2-[2-(2-Amino-ethoxy)-ethoxy]-acetyl)2-(γ-Glu)-(10-(4-carboxyphenoxy)decanoyl))-αMeY-LIK((2-[2-(2-Amino-ethoxy)-ethoxy]-acetyl)2-(γ-Glu)-(10-(4-carboxyphenoxy)decanoyl))GGPSSGAPPPS-NH2) [Example 402]	group 3
2) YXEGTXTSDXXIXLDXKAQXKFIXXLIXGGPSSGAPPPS (Y-Aib-EGT-αMeF(2F)-TSD-4Pal-Aib-I-αMeL-LD-Orn-K((2-[2-(2-Amino-ethoxy)-ethoxy]-acetyl)2-(γ-Glu)-CO-(CH2)10-CH3)AQ-Aib-K((2-[2-(2-Amino-ethoxy)-ethoxy]-acetyl)2-(γ-Glu)-CO-(CH2)10-CH3)FI-(D-Glu)-αMeY-LI-Orn-GGPSSGAPPPS-NH2) [Example 413]	group 2
3) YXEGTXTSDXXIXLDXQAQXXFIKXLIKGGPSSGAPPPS (Y-Aib-EGT-αMeF(2F)-TSD-4Pal-Aib-I-αMeL-LD-Orn-QAQ-Aib-Orn-FIK(Ahx-(2-[2-(2-Amino-ethoxy)-ethoxy]-acetyl)-(γ-Glu)-(10-(4-carboxyphenoxy)decanoyl))-αMeY-LIK(Ahx-(2-[2-(2-Amino-ethoxy)-ethoxy]-acetyl)-(γ-Glu)-(10-(4-carboxyphenoxy)decanoyl))GGPSSGAPPPS-NH2) [Example 455]	group 1
4) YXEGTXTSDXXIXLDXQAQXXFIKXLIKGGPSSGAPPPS (Y-Aib-EGT-αMeF(2F)-TSD-4Pal-Aib-I-αMeL-LD-Orn-QAQ-Aib-Orn-FIK((2-[2-(2-Amino-ethoxy)-ethoxy]-acetyl)-Ahx-(γ-Glu)-(10-(4-carboxyphenoxy)decanoyl))-αMeY-LIK((2-[2-(2-Amino-ethoxy)-ethoxy]-acetyl)-Ahx-(γ-Glu)-(10-(4-carboxyphenoxy)decanoyl))GGPSSGAPPPS-NH2) [Example 453]	group 2
5) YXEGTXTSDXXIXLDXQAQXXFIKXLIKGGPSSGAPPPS (Y-Aib-EGT-αMeF(2F)-TSD-4Pal-Aib-I-αMeL-LD-Orn-QAQ-Aib-Orn-FIK((γ-Glu)-(2-[2-(2-Amino-ethoxy)-ethoxy]-acetyl)2-(γ-Glu)-CO-(CH2)12-CO2H)-αMeY-LIK((γ-Glu)-(2-[2-(2-Amino-ethoxy)-ethoxy]-acetyl)2-(γ-Glu)-CO-(CH2)12-CO2H)GGPSSGAPPPS-NH2) [Example 482]	group 2
6) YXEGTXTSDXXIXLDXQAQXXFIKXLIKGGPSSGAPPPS (Y-Aib-EGT-αMeF(2F)-TSD-4Pal-Aib-I-αMeL-LD-Orn-QAQ-Aib-Orn-FIK((2-[2-(2-Amino-ethoxy)-ethoxy]-acetyl)-Trx-(γ-Glu)-CO-(CH2)12-CO2H)-αMeY-LIK(((2-[2-(2-Amino-ethoxy)-ethoxy]-acetyl)-Trx-(γ-Glu)-CO-(CH2)12-CO2H)GGPSSGAPPPS-NH2)) [Example 472]	group 2
7) Y[Aib]EGT[αMePhe(2-F)]TSDV[Aib]I[αMeL]LD[Orn]IAQ[Aib]K([AEEA-AEEA-γGlu-Decanoyl(10-(4-HOOC-PhO))])FI[dE][αMeY]LIEGGPSSGAPPPSK([AEEA-AEEA-γGlu-Decanoyl(10-(4-HOOC-PhO))])-NH2 [Example 383]	group 3
8) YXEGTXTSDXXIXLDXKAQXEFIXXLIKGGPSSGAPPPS (Y-Aib-EGT-αMeF(2F)-TSD-4Pal-Aib-I-αMeL-LD-Orn-K((2-[2-(2-Amino-ethoxy)-ethoxy]-acetyl)-(γ-Glu)-(10-(4-carboxyphenoxy)decanoyl))AQ-Aib-EFIe-αMeY-LIK((2-[2-(2-Amino-ethoxy)-ethoxy]-acetyl)-(γ-Glu)-(10-(4-carboxyphenoxy)decanoyl))GGPSSGAPPPS-NH2) [Example 361]	group 3
9) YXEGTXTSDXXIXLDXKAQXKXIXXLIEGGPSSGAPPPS (Y-Aib-EGT-αMeF(2F)-TSD-4Pal-Aib-I-αMeL-LD-Orn-K((2-[2-(2-Amino-ethoxy)-ethoxy]-acetyl)3-(γ-Glu)-CO-(CH2)10-CH3)AQ-Aib-K((2-[2-(2-Amino-ethoxy)-ethoxy]-acetyl)3-(γ-Glu)-CO-(CH2)10-CH3)-αMeF-I-(D-Glu)-αMeY-LIEGGPSSGAPPPS-NH2) [Example 437]	group 2
10) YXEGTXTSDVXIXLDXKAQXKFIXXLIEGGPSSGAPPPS (Y-Aib-EGT-αMeF(2F)-TSDV-Aib-I-αMeL-LD-Orn-K((2-[2-(2-Amino-ethoxy)-ethoxy]-acetyl)-(γ-Glu)-(10-(4-carboxyphenoxy)decanoyl))AQ-Aib-K((2-[2-(2-Amino-ethoxy)-ethoxy]-acetyl)-(γ-Glu)-(10-(4-carboxyphenoxy)decanoyl))FI-(D-Glu)-αMeY-LIEGGPSSGAPPPS-NH2) [Example 378]	group 3
11) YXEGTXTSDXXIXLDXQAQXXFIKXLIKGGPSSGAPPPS (Y-Aib-EGT-αMeF(2F)-TSD-4Pal-Aib-I-αMeL-LD-Orn-QAQ-Aib-Orn-FIK((2-[2-(2-Amino-ethoxy)-ethoxy]-acetyl)2-(γ-Glu)2-CO-(CH2)12-CO2H)-αMeY-LIK((2-[2-(2-Amino-ethoxy)-ethoxy]-acetyl)2-(γ-Glu)2-CO-(CH2)12-CO2H)GGPSSGAPPPS-NH2) [Example 474]	group 1
12) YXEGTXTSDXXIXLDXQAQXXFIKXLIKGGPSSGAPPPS (Y-Aib-EGT-αMeF(2F)-TSD-4Pal-Aib-I-αMeL-LD-Orn-QAQ-Aib-Orn-FIK(PEG3-(γ-Glu)-(10-(4-carboxyphenoxy)decanoyl))-αMeY-LIK(PEG3-(γ-Glu)-(10-(4-carboxyphenoxy)decanoyl))GGPSSGAPPPS-NH2) [Example 462]	group 1
